Target: flPOT1 P446Q;TPP1(87) (Homo sapiens;Homo sapiens, UniProt Q9NUX5;Q96AP0 1-634;1-458, P446Q|)
Sequence (Q9NUX5 whole entry P446Q, chain 1 of 2): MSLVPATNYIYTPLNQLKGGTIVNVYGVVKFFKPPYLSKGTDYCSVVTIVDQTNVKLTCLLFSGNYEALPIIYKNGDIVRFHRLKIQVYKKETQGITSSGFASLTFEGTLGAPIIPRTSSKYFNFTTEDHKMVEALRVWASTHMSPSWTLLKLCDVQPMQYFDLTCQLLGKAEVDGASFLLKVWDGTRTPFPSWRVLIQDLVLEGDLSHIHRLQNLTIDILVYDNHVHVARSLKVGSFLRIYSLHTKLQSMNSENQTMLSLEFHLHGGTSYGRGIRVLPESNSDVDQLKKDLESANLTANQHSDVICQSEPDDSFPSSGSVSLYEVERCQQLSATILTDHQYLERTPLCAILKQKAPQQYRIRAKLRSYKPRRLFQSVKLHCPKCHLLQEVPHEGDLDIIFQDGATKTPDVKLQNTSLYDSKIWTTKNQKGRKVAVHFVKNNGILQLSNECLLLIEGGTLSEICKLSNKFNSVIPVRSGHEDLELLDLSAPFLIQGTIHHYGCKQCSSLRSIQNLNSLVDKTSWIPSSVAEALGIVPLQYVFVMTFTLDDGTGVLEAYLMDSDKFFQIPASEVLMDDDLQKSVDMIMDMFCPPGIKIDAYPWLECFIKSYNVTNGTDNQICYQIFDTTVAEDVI
Sequence (Q96AP0 whole entry, chain 2 of 2): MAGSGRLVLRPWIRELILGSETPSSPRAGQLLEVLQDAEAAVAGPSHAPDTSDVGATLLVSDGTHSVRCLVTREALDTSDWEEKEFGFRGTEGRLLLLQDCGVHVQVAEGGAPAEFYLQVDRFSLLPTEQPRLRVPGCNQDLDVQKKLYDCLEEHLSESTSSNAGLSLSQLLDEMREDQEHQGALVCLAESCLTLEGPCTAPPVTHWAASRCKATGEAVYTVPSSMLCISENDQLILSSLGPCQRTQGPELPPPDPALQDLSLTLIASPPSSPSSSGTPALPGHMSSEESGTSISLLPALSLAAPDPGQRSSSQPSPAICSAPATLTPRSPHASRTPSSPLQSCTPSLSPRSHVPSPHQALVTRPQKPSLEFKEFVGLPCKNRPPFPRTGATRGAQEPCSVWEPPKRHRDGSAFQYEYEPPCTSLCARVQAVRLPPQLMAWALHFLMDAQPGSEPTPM
Assay: fluorescence polarization; FP: 20 mM Hepes pH 7.5, 100 mM KCl, 2 mM MgCl2, 1 mM EDTA, 2 mM DTT, 1 mg/ml BSA, 5% glycerol, 75 nM polyT50 competitor, 2.5 nM probe, room temperature 30 min
Conditions: protein: recombinant;recombinant, tags: N-terminal His6-pMocr, TEV-cleaved;N-terminal His6-MBP, copies: 1;1, label: 5' 6-FAM, single strand
Recorded metric: Kd (nM)
Give the value in nM but do not write nM after it.

Per the records, this binder ( TTAGGGTTAGGGTTAGGG (ssDNA) [telomeric 18mer (TTAGGG)3] ) has Kd equal to 10.3
